Origin of the recorded values: PubChem BioAssay AID1385

ASSAYED_TARGET: DNA repair protein RAD51 homolog 1 (Homo sapiens) (UniProt Q06609)
Sequence (Q06609 whole entry, looked up): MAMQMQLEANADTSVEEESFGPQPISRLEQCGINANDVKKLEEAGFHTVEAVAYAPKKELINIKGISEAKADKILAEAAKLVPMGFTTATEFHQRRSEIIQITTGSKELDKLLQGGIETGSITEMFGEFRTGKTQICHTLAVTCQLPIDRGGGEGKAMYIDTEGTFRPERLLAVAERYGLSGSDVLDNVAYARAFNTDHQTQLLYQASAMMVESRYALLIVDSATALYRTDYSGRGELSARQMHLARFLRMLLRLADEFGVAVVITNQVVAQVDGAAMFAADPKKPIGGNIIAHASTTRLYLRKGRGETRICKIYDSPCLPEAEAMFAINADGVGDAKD
ASSAY_NOTES: blockers of RAD51-mediated homologous recombination – biochemical, fluorescence, primary screen (AID 1385);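 also: 0% = DMSO control wells and 100% = blanks with heterologous ssDNA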
CONDITION_LABEL: hRad51 DNA strand exchange, fluorescence dequenching; at 10 µM; hits give high values
Out of some 200,000 compounds screened, about 170 (0.085%) were called active. Many of the other results were omitted from the sample, so actives are more common in it than they were.
REPORTED_METRIC: inhibition (%)
Provide the reading as a plain figure in %.

Some compounds with recorded inhibition:
>>> measured_number("O=C1NNC(c2ccccc2)=N/C1=C\\c1ccc(Cl)cc1")
-17
>>> measured_number("CC1CN(c2nc(Nc3ccccc3)nc(N)c2[N+](=O)[O-])CC(C)O1 (stereo unspecified)")
-23.5
>>> measured_number("COc1ccccc1N1CCN(C(=O)CSc2ncnc3c2cnn3-c2ccc(C)c(C)c2)CC1")
-12.6
>>> measured_number("O=C(C1=C(O)C(=O)N(CCOCCO)C1c1ccccn1)c1cccs1 (stereo unspecified)")
21.9
>>> measured_number("NS(=O)(=O)c1ccc(CNC(=O)c2cnccn2)cc1")
7.99

Q. I have this compound here, `Cn1c(=O)c2c(-c3cccc(Br)c3)c(C#N)c(N)nc2n(C)c1=O` , and I need its recorded inhibition.
A. 4.26

Q. Would you kindly repeat that for `NC(=O)c1nnsc1-c1ccc(-c2snnc2C(N)=O)cc1` ?
A. -31.9

###

ASSAYED_TARGET: DNA repair protein RAD51 homolog 1 (Homo sapiens)
ASSAY_NOTES: blockers of RAD51-mediated homologous recombination – biochemical, fluorescence, primary screen (AID 1385);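 also: 0% = DMSO control wells and 100% = blanks with heterologous ssDNA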
CONDITION_LABEL: hRad51 DNA strand exchange, fluorescence dequenching; at 10 µM; hits give high values
Screen size: about 200,000 compounds; about 170 (0.085%) were called active. This excerpt belongs to a sample that is enriched for actives.
REPORTED_METRIC: inhibition (%)
# unit: % | format: bare number

>>> measured_number("CC(NCc1ccccc1OC1CCCC1)c1ccccc1 (centres undefined)")
15.6
>>> measured_number("S=C(NCCc1ccccc1)Nc1ccccc1")
15.1
>>> measured_number("Nc1ccccc1C(=O)NC1CCCCNC1=O (centres undefined)")
11.6
>>> measured_number("CC(C)c1cc(CN2CCOCC2)cc(C(C)C)c1O")
-12.3
>>> measured_number("CNC1(c2nnnn2-c2c(C)cccc2C)CCOC(C)(C)C1 (centres undefined)")
5.82

Q. Field request: inhibition | item: CC(=O)N/C(=C\c1ccc(F)cc1)C(=O)NC(Cc1ccccc1)C(=O)O (centres undefined)
A. 5.67

Q. And then `Cc1cc(NC(=O)OC(C)C)ccc1-c1ccc(NC(=O)OC(C)C)cc1C` , what is it?
A. -19.8

Q. Try the molecule `O=C(CCNc1n[nH]c(=O)[nH]c1=O)N/N=C\c1ccc(Br)cc1`
A. -0.51

Q. Item: Nc1ccccc1SC(C[N+](=O)[O-])c1ccccc1 (centres undefined)
A. 14.8

Q. Moving on to C=CCN1CC(C)/C(=N\O)CC1C (centres undefined)
A. -1.92

Q. Follow-up item: `C=CCSc1nnc(NC(=O)c2ccc(NC(C)=O)cc2)s1`
A. 4.61

Q. Continue with Cc1nc(-c2ccc(Cl)cc2)sc1C1(C)CC(c2ccc(Br)cc2)=NO1 (centres undefined)
A. -6.72

Q. Request: `CCCc1nc2c(c(=O)c3ccccc3n2C)c(=O)n1-c1cc(C)cc(C)c1`
A. 20

Q. Similarly, COC(=O)c1sccc1NC(=O)CC1C(=O)NCCN1C(=O)Nc1ccc(F)cc1F (centres undefined) ?
A. 1.89

###

ASSAYED_TARGET: DNA repair protein RAD51 homolog 1 (Homo sapiens) (UniProt Q06609)
ASSAY_NOTES: blockers of RAD51-mediated homologous recombination – biochemical, fluorescence, primary screen (AID 1385);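 also: 0% = DMSO control wells and 100% = blanks with heterologous ssDNA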
CONDITION_LABEL: hRad51 DNA strand exchange, fluorescence dequenching; at 10 µM; hits give high values
Hit rate of the full screen: of about 200,000 compounds, about 170 (0.085%) were called active. The full list was thinned out, with actives kept by preference.
inhibition listing for selected compounds.
Write the value in % as a bare number.

>>> measured_number("COc1cccc(CC(=O)Nc2ccc(-c3csc(C)n3)cc2)c1")
6

Q. Quick one: inhibition for `C/C=C/C(=O)Nc1ccc(N2CCN(c3ccc(C(F)(F)F)cn3)CC2)nc1` ?
A. 19.9

Q. # iterate: `Cc1cccc(N2CCN(Cc3nc(C4CC4)no3)CC2)n1`
A. -8.44

Q. Ok, now `Cc1ncn2cc(-c3ccc(Cl)cc3Cl)[nH]c(=O)c12`
A. -9.91

Q. One more compound: `O=C(O)COCC(=O)NCc1csc2ccc(Cl)cc12`
A. 15

Q. Query `COc1ccc(Cn2c(O)c(/C=C3/C=CC=N3)c(=O)[nH]c2=O)cc1` next
A. -6.92

###

ASSAYED_TARGET: DNA repair protein RAD51 homolog 1 (Homo sapiens)
ASSAY_NOTES: blockers of RAD51-mediated homologous recombination – biochemical, fluorescence, primary screen (AID 1385);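 also: 0% = DMSO control wells and 100% = blanks with heterologous ssDNA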
CONDITION_LABEL: hRad51 DNA strand exchange, fluorescence dequenching; at 10 µM; hits give high values
The campaign covered roughly 200,000 compounds. About 170 (0.085%) were called active. This is one part of a sample in which actives are shown more often than they occur.
Listing of recorded inhibition by entry.
Output spec: scalar in %, unitless text.

Consider the worked cases shown below.
>>> measured_number("O=C1[C@@H]2C(c3cccnc3)=NO[C@@H]2C(=O)N1c1ccc(Cl)cc1Cl")
-42
>>> measured_number("O=C(O)c1ccc(/C=N/Nc2nc(N3CCCCC3)nc(N3CCCCC3)n2)cc1")
8.17
>>> measured_number("O=S(=O)(Cc1noc(-c2ccc(OC(F)(F)F)cc2)n1)c1ccc(F)cc1")
-2.58
>>> measured_number("CCCSc1ncccc1C(=O)O")
14.8
>>> measured_number("Cn1c(=O)c(=O)n(C)c2cc(S(=O)(=O)NCCN3CCN(c4ccccc4F)CC3)ccc21")
0.68

Now consider the entry below.
Q. Which inhibition is reported with DNA repair protein RAD51 homolog 1 (Homo sapiens) for this entry: CN1CCc2nc(SC(C(=O)O)c3ccccc3)c(C#N)c(-c3cccs3)c2C1 (stereo not given) ?
A. -22.2

###

ASSAYED_TARGET: DNA repair protein RAD51 homolog 1 (Homo sapiens) (UniProt Q06609)
ASSAY_NOTES: blockers of RAD51-mediated homologous recombination – biochemical, fluorescence, primary screen (AID 1385);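 also: 0% = DMSO control wells and 100% = blanks with heterologous ssDNA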
CONDITION_LABEL: hRad51 DNA strand exchange, fluorescence dequenching; at 10 µM; hits give high values
Out of some 200,000 compounds screened, about 170 (0.085%) were called active. The entries come from a sample that favours actives as a whole.
REPORTED_METRIC: inhibition (%)
The answer is to be given in %; state only the numeric part.

Field: example entries. Status: answers known.
>>> measured_number("CCC(CC)c1nnc(NS(=O)(=O)Cc2ccccc2)s1")
84.4
>>> measured_number("COc1ccc(Cc2nnc(NS(=O)(=O)Cc3ccccc3)s2)cc1")
-0.75
>>> measured_number("CCC(CC)c1nnc(NC(=O)c2nn(C)c(=O)c3ccccc23)s1")
6.66

Q. inhibition lookup needed for `NNC(=O)c1cccc(COCC(F)(F)C(F)F)c1` , thanks.
A. 8.15

Q. Input `CC(C)(C)n1cnnc1Sc1ccc([N+](=O)[O-])cn1`
A. 25.8

Q. Next compound: `S=c1nc2ccccc2c2nc(-c3cccnc3)[nH]n12`
A. 1.9

###

inhibition values for the molecules below.
ASSAYED_TARGET: DNA repair protein RAD51 homolog 1 (Homo sapiens) (UniProt Q06609)
ASSAY_NOTES: blockers of RAD51-mediated homologous recombination – biochemical, fluorescence, primary screen (AID 1385);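 also: 0% = DMSO control wells and 100% = blanks with heterologous ssDNA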
CONDITION_LABEL: hRad51 DNA strand exchange, fluorescence dequenching; at 10 µM; hits give high values
The whole screen tested about 200,000 compounds, of which about 170 (0.085%) were called active. Shown is part of a subset that was picked to be rich in actives.
Answer format: numeric, % implied, no suffix.

>>> measured_number("Cc1cc(=O)oc2cc(OCC(=O)Nc3nnc(C4CC4)s3)ccc12")
27.8
>>> measured_number("COc1ccccc1-n1cn[nH]c1=S")
26.3
>>> measured_number("O=[N+]([O-])c1ccc(N/N=C/c2ccccc2)cc1")
-5.09
>>> measured_number("CC(OC(=O)c1ccc(NS(=O)(=O)c2ccc3[nH]c(=O)[nH]c3c2)cc1)C(=O)Nc1cccc(Cl)c1Cl (stereo not given)")
1.25

We now examine a further molecule.
Q. Entry `CCOC(=O)c1ccc(S(=O)(=O)N(CCO)Cc2cc3cc(OC)c(OC)cc3[nH]c2=O)cc1` , system DNA repair protein RAD51 homolog 1 (Homo sapiens) (UniProt Q06609): what inhibition was measured?
A. -11
